# Assay Summary: self-splicing fitness, log relative to wild type (ln ratio); higher = more splicing; Tetrahymena group I intron in knt gene, E. coli kanamycin selection, DiMSum; sequences stand for … in CUCUCU…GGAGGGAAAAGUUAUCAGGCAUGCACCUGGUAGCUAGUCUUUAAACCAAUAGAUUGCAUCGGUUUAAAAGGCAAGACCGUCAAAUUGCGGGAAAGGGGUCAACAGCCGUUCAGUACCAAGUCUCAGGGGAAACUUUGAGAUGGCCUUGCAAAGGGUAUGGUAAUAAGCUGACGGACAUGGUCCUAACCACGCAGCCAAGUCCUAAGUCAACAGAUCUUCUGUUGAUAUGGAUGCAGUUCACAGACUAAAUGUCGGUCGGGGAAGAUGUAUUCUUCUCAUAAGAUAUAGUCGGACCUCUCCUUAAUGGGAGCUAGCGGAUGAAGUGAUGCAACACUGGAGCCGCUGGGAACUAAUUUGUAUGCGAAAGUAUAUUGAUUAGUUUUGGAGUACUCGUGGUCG;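 further: selection with 25 µg/mL kanamycin versus none on LB agar overnight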
# Measurement Setup: 30 °C
Quantity Measured: self-splicing fitness (ln)

[[record]]
sequence_input = "GAAUAGCAAUAUUACGUAGC"
quantity_measured = "self-splicing fitness (ln)"
test_value = -3.4

[[record]]
sequence_input = "GAGCAGCAAUAUUACGCGAA"
quantity_measured = "self-splicing fitness (ln)"
test_value = -3.01

[[record]]
sequence_input = "UGGAAGCAAUAUUACGGUUG"
quantity_measured = "self-splicing fitness (ln)"
test_value = -1.46

[[record]]
sequence_input = "AAGAAGCAAUAUUACGAGGU"
quantity_measured = "self-splicing fitness (ln)"
test_value = -3.38

[[record]]
sequence_input = "CGGGAGCAAUAUUACGGCUG"
quantity_measured = "self-splicing fitness (ln)"
test_value = -2.43

[[record]]
sequence_input = "AACAAGCAAUAUUACGGGGA"
quantity_measured = "self-splicing fitness (ln)"
test_value = -3.21


Source: the supplement of paper PMC7877785
